# reported IC50; entries follow
# MEASURED_ON: EGFR del19/T790M/C797S (Homo sapiens, UniProt P00533, C797S/DEL746-750/T790M)
# Sequence (P00533 with tags, fused parts or gaps DEL746-750/T790M/C797S): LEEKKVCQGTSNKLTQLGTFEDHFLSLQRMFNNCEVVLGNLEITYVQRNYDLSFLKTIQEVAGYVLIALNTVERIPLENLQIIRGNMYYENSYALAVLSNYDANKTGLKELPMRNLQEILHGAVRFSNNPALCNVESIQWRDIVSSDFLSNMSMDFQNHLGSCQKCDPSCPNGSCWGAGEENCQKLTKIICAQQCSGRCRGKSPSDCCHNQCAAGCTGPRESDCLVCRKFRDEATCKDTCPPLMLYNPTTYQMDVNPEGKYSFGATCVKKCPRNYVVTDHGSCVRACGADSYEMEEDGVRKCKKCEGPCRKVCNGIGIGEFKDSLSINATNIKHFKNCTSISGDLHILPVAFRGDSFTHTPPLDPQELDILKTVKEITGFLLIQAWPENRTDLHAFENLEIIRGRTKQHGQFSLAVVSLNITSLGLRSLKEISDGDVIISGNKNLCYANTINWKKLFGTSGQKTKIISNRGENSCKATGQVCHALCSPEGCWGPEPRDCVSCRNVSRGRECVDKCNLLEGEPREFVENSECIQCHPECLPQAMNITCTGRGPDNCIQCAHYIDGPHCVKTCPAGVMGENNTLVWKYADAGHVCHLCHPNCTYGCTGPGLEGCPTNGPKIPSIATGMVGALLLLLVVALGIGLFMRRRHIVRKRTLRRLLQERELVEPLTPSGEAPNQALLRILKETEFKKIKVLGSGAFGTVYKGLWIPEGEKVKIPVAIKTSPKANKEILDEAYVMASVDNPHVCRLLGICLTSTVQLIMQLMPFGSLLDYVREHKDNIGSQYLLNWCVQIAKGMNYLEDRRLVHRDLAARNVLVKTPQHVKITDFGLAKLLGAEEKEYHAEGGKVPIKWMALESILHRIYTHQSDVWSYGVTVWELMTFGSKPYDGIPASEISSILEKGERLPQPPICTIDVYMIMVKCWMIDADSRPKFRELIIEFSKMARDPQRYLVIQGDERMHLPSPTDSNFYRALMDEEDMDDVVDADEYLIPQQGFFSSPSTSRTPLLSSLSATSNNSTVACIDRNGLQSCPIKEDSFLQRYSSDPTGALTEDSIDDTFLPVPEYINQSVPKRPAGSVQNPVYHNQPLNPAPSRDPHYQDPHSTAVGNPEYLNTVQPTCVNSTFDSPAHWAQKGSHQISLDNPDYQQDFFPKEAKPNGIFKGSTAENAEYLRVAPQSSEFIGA
# PROTOCOL_TEXT: Biochemical EGFR kinase assay (Lance Ultra TR-FRET), triple mutant del19/T790M/C797S
# TEST_CONTEXT: IC50 del19/T790M/C797S, 100 μM ATP
// note: answer is a bare numeric in pM

[[record]]
compound = "CN(C)c1ccnc(-c2cnc(Nc3ccnc(-c4cnn(S(=O)(=O)C5CC5)c4)n3)cc2N[C@H]2CC[C@@](C)(O)CC2)c1"
observation_type = "IC50"
units_label = "pM"
reported_result = 2700

[[record]]
compound = "CN(C)C[C@H]1CC[C@@H](Nc2cc(Nc3ccnc(-c4cnn(S(=O)(=O)C5CC5)c4)n3)ncc2-c2ccc(OC(F)(F)F)cn2)CC1"
observation_type = "IC50"
units_label = "pM"
reported_result = 500


Please turn your attention to the following entry.
Memo: CC1(O)CCC(Nc2cc(Nc3ccnc(-c4cnn(S(=O)(=O)C5CC5)c4)n3)ncc2-c2cc(S(C)(=O)=O)ccn2)CC1 (stereo not drawn) , reported IC50: 800

---

# MEASURED_ON: EGFR L858R/C797S (Homo sapiens, UniProt P00533, C797S/L858R)
# Sequence (P00533 25-1210 C797S/L858R): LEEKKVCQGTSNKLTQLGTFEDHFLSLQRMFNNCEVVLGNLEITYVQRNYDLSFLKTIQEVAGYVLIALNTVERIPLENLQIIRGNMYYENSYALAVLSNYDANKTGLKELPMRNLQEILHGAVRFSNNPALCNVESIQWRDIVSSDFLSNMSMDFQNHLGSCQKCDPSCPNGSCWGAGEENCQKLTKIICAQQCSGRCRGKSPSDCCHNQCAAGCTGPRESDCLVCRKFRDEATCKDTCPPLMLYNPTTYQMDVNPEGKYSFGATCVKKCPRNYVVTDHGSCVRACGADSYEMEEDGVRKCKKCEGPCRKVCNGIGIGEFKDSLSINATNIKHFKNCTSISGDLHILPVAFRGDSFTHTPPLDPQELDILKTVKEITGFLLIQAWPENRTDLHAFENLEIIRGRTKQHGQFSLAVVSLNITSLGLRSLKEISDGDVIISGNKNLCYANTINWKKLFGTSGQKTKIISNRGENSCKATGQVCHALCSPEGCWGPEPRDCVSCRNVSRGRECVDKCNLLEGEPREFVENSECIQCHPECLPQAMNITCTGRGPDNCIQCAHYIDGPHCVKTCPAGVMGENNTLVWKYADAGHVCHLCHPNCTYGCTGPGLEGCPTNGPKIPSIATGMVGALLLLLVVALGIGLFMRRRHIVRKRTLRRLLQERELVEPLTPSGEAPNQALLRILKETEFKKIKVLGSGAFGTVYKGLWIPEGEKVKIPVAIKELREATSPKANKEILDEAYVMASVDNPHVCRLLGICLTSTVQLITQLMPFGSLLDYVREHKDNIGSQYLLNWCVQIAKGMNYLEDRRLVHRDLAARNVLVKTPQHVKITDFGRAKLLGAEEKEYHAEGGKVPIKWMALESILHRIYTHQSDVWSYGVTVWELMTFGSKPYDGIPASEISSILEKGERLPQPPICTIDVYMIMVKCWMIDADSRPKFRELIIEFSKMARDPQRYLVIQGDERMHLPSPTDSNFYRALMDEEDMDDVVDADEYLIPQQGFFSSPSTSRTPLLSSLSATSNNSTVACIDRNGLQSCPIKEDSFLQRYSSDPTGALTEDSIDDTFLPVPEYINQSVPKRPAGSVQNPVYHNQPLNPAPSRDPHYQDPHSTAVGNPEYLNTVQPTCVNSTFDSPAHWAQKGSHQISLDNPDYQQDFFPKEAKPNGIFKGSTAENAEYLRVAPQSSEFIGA
# PROTOCOL_TEXT: Biochemical EGFR kinase assay (Lance Ultra TR-FRET), double mutant L858R/C797S
# TEST_CONTEXT: ATP at Km; read-out: IC50 L858R/C797S, Km ATP
# reported pIC50; entries follow
API: returns pIC50 as number; meaning -log10 of concentration in mol/L.

Memo: CC(C)(O)[C@H]1CC[C@@H](Nc2cc(Nc3ccnc(-c4cnn(S(=O)(=O)C5CC5)c4)n3)ncc2-c2ccc(N3CC(F)(F)C3)cn2)CC1 , reported pIC50: 7.99

---

# MEASURED_ON: EGFR L858R/T790M/C797S (Homo sapiens, UniProt P00533, C797S/L858R/T790M)
# Sequence (P00533 25-1210 T790M/C797S/L858R): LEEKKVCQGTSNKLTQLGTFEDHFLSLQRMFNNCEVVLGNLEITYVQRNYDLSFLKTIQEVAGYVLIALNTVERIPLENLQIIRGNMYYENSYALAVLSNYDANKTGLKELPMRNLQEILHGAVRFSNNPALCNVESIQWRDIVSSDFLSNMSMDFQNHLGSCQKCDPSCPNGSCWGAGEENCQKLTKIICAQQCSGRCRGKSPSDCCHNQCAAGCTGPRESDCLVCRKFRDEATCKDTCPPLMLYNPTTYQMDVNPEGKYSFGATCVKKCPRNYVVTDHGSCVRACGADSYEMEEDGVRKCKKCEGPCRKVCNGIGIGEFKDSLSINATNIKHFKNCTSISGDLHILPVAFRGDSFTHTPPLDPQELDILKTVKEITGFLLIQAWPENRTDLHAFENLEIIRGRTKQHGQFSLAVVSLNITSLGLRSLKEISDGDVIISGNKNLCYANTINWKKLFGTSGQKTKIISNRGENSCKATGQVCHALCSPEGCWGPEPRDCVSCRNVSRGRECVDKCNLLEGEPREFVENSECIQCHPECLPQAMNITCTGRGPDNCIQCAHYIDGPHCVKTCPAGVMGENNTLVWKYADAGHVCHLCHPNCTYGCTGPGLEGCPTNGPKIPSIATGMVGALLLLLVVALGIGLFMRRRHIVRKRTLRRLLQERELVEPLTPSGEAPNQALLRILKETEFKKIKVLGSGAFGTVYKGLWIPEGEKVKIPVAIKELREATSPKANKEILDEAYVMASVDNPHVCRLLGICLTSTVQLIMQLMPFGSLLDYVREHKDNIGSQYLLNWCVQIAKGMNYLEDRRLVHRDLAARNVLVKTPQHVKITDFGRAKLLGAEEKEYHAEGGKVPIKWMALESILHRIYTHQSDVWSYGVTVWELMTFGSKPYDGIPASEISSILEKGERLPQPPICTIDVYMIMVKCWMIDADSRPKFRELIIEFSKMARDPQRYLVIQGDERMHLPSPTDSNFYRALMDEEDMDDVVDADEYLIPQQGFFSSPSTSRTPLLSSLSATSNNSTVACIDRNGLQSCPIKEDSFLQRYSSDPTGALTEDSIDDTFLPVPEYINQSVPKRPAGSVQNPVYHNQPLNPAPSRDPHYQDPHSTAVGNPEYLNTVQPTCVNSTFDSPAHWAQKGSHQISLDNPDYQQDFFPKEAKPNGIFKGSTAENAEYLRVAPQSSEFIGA
# PROTOCOL_TEXT: Biochemical EGFR kinase assay (Lance Ultra TR-FRET), triple mutant L858R/T790M/C797S
# TEST_CONTEXT: IC50 L858R/T790M/C797S (nM) 100 μM ATP, 100 μM ATP
# reported IC50; entries follow
// note: answer is a bare numeric in nM

Reference set, count: 5
[[record]]
compound = "CN1CCN(Cc2cccc(-c3cnc(Nc4ccnc(-c5cnn(S(=O)(=O)C6CC6)c5)n4)cc3N[C@H]3CC[C@@](C)(O)CC3)n2)CC1 [Example 28]"
observation_type = "IC50"
reported_result = 0.1

[[record]]
compound = "O=S(=O)(C1CC1)n1cc(-c2nccc(Nc3cc(N[C@H]4CC[C@@H](CO)CC4)c(-c4cc(N5CCC(F)(F)CC5)ccn4)cn3)n2)cn1 [Example 100]"
observation_type = "IC50"
reported_result = 5.3

[[record]]
compound = "O=S(=O)(C1CC1)n1cc(-c2nccc(Nc3cc(N[C@H]4CC[C@@H](CO)CC4)c(-c4ccc(CO)cn4)cn3)n2)cn1 [Example 22]"
observation_type = "IC50"
reported_result = 0.2

[[record]]
compound = "CN1CCN(c2ccnc(-c3cnc(Nc4ccnc(-c5cnn(S(=O)(=O)C6CC6)c5)n4)cc3N[C@H]3CC[C@@](C)(O)CC3)c2)CC1 [Example 58]"
observation_type = "IC50"
reported_result = 1.1

[[record]]
compound = "CN1CCN(c2ccc(-c3cnc(Nc4ccnc(-c5cnn(S(=O)(=O)C6CC6)c5)n4)cc3N[C@H]3CC[C@@](C)(O)CC3)nc2)CC1 [Example 83]"
observation_type = "IC50"
reported_result = 0.3


Memo: CC(C)(O)[C@H]1CC[C@@H](Nc2cc(Nc3ccnc(-c4cnn(S(=O)(=O)C5CC5)c4)n3)ncc2-c2cc(CN3CCC(F)(F)CC3)ccn2)CC1 [Example 114] , reported IC50: 4.5

Memo: C[C@]1(O)CC[C@@H](Nc2cc(Nc3ccnc(-c4cnn(S(=O)(=O)C5CC5)c4)n3)ncc2-c2cc(C(F)F)ccn2)CC1 [Example 76] , reported IC50: 0.8

Memo: CN1CCN(Cc2ccnc(-c3cnc(Nc4ccnc(-c5cnn(S(=O)(=O)C6CC6)c5)n4)cc3N[C@H]3CC[C@@](C)(O)CC3)c2)CC1 [Example 55] , reported IC50: 0.4

---

# reported pIC50; entries follow
# MEASURED_ON: EGFR L858R/T790M/C797S (Homo sapiens, UniProt P00533, C797S/L858R/T790M)
# PROTOCOL_TEXT: Biochemical EGFR kinase assay (Lance Ultra TR-FRET), triple mutant L858R/T790M/C797S
# TEST_CONTEXT: ATP at Km; read-out: IC50 L858R/T790M/C797S, Km ATP
API: returns pIC50 as number; meaning -log10 of concentration in mol/L.

[[record]]
item_smiles = "O=S(=O)(C1CC1)n1cc(-c2nccc(Nc3cc(N[C@H]4CC[C@@H](NCC(F)F)CC4)c(-c4cccc(F)n4)cn3)n2)cn1"
measured_on = "EGFR L858R/T790M/C797S (Homo sapiens, UniProt P00533, C797S/L858R/T790M)"
observation_type = "pIC50"
reported_result = 9.15

[[record]]
item_smiles = "CC(C)(O)c1ccc(-c2cnc(Nc3ccnc(-c4cnn(S(=O)(=O)C5CC5)c4)n3)cc2NC2CCN(CC(F)F)CC2)nc1"
measured_on = "EGFR L858R/T790M/C797S (Homo sapiens, UniProt P00533, C797S/L858R/T790M)"
observation_type = "pIC50"
reported_result = 9.00


Measured pIC50 (EGFR L858R/T790M/C797S (Homo sapiens, UniProt P00533, C797S/L858R/T790M)), entry O=S(=O)(C1CC1)n1cc(-c2nccc(Nc3cc(N[C@H]4CC[C@@H](CCO)CC4)c(-c4ccc(CC(F)(F)F)cn4)cn3)n2)cn1 : 8.62

---

# reported pIC50; entries follow
# MEASURED_ON: EGFR wildtype (Homo sapiens)
# Sequence (P00533 25-1210): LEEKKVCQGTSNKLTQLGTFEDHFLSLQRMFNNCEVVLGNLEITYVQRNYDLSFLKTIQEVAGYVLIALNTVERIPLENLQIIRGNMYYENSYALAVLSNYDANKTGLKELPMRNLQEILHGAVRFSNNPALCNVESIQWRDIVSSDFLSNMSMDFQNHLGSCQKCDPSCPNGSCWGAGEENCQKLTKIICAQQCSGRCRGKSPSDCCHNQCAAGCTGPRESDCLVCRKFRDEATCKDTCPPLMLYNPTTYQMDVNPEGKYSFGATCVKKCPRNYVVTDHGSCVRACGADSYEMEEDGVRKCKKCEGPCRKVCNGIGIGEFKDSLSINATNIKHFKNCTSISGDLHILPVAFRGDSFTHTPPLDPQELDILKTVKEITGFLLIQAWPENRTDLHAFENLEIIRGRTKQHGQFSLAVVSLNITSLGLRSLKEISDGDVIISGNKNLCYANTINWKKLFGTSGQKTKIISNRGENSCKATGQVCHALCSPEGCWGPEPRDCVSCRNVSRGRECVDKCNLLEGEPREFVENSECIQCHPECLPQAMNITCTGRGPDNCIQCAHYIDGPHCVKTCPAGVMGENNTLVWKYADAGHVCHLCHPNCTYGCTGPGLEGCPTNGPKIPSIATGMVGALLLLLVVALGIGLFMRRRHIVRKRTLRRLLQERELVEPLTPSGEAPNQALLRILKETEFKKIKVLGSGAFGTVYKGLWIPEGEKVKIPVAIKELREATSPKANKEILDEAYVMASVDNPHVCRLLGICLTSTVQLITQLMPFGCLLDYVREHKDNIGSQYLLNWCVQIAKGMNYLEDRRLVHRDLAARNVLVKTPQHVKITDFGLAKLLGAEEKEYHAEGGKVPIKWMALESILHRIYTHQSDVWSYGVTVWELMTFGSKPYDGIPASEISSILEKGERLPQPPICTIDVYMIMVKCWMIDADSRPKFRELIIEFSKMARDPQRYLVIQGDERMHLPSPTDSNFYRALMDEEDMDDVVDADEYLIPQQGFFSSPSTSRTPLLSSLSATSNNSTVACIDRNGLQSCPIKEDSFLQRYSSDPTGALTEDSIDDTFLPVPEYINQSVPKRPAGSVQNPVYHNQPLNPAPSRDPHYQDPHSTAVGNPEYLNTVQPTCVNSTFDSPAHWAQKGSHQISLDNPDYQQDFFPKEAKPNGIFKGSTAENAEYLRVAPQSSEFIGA
# PROTOCOL_TEXT: Biochemical EGFR kinase assay (Lance Ultra TR-FRET), wildtype
# TEST_CONTEXT: ATP at Km; read-out: IC50 WT, Km ATP
API: returns pIC50 as number; meaning -log10 of concentration in mol/L.

Reference set, count: 5
[[record]]
compound = "CN1CC(Oc2ccc(-c3cnc(Nc4ccnc(-c5cnn(S(=O)(=O)C6CC6)c5)n4)cc3N[C@H]3CC[C@@](C)(O)CC3)nc2)C1"
reported_result = 9.52

[[record]]
compound = "O=S(=O)(C1CC1)n1cc(-c2nccc(Nc3cc(N[C@H]4CCC[C@H](CO)C4)c(-c4ccc(CC(F)(F)F)cn4)cn3)n2)cn1"
reported_result = 7.43

[[record]]
compound = "C[C@]1(O)CC[C@@H](Nc2cc(Nc3ccnc(-c4cnn(S(=O)(=O)C5CC5)c4)n3)ncc2-c2cnc(F)cn2)CC1"
reported_result = 6.95

[[record]]
compound = "O=S(=O)(C1CC1)n1cc(-c2nccc(Nc3cc(NCC4(CO)COC4)c(-c4cccc(F)n4)cn3)n2)cn1"
reported_result = 7.94

[[record]]
compound = "C[C@]1(O)CC[C@@H](Nc2cc(Nc3ccnc(-c4cnn(S(=O)(=O)C5CC5)c4)n3)ncc2-c2ccc(CCC(F)(F)F)cn2)CC1"
reported_result = 7.85


Please turn your attention to the following entry.
Memo: CC(C)(O)C1CCC(Nc2cc(Nc3ccnc(-c4cnn(S(=O)(=O)C5CC5)c4)n3)ncc2-c2ccc(C(C)(O)C(F)(F)F)cn2)CC1 (stereo not drawn) , reported pIC50: 7.74

---

# reported IC50; entries follow
# MEASURED_ON: EGFR L858R/T790M/C797S (Homo sapiens, UniProt P00533, C797S/L858R/T790M)
# PROTOCOL_TEXT: Biochemical EGFR kinase assay (Lance Ultra TR-FRET), triple mutant L858R/T790M/C797S
# TEST_CONTEXT: ATP at Km; read-out: IC50 L858R/T790M/C797S, Km ATP
// note: answer is a bare numeric in nM

Reference set, count: 5
[[record]]
molecule = "CN1CCC(Oc2ccc(-c3cnc(Nc4ccnc(-c5cnn(S(=O)(=O)C6CC6)c5)n4)cc3N[C@H]3CCC[C@H](CO)C3)nc2)CC1 [Example 253]"
reported_result = 0.4

[[record]]
molecule = "O=S(=O)(C1CC1)n1cc(-c2nccc(Nc3cc(NC4CCC(F)CC4)c(-c4cnc(OC5CCOC5)cn4)cn3)n2)cn1 (stereo not drawn) [Example 152]"
reported_result = 0.1

[[record]]
molecule = "CN1CCC(Oc2ccc(-c3cnc(Nc4ccnc(-c5cnn(S(=O)(=O)C6CC6)c5)n4)cc3N[C@H]3CC[C@@H](F)CC3)nn2)CC1 [Example 270]"
reported_result = 0.1

[[record]]
molecule = "COC(c1ccc(-c2cnc(Nc3ccnc(-c4cnn(S(=O)(=O)C5CC5)c4)n3)cc2NC2CCC(CN(C)C)CC2)nc1)C(F)(F)F (stereo not drawn) [Example 262]"
reported_result = 0.5

[[record]]
molecule = "CN(C)S(=O)(=O)n1cc(-c2nccc(Nc3cc(NC4CCC(C)(O)CC4)c(-c4ccc(C(O)C(F)(F)F)cn4)cn3)n2)cn1 (stereo not drawn) [Example 297]"
reported_result = 1.4


Please turn your attention to the following entry.
Memo: O=S(=O)(C1CC1)n1cc(-c2nccc(Nc3cc(NCC4(CO)COC4)c(-c4cccc(F)n4)cn3)n2)cn1 [Example 161] , reported IC50: 0.1

Just for reference, patent US12258328B2 is where these values come from.
